# TESTED_TARGET: T1, Rat IL-23R_huFC (rat; human, UniProt F1LX96 39-369)
# T1 sequence: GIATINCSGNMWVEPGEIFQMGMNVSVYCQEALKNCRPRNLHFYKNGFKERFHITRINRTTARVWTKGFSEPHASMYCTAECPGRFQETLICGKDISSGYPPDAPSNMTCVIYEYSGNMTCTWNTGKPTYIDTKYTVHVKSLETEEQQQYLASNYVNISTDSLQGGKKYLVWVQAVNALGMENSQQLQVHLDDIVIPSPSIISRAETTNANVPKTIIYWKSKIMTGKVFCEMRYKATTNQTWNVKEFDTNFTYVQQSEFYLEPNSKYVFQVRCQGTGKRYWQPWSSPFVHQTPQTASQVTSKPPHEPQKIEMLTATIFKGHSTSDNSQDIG
# TEST_SUMMARY: rat IL-23R competitive ELISA
Bridges are numbered along the chain shown (N, C = ends). [ ]: non-standard residue; d: D form. NMeQ = CN[C@@H](CCC(N)=O)C(=O)O; AEA = NCCOCC(=O)O
METRIC_NAME: pIC50
Schema: pIC50 number; meaning minus log10 of the concentration expressed in molar units.

## Task Looking for the measured pIC50 of CXTWQCYWRVFGXK (Ac-; [Cit]; [AEA]; [(D)Lys]; -NH2) [Ac-C-[Cit]-TWQCYWRVFG-[AEA]-[(D)Lys]-NH2] , can you help?
## Result 7.12

## Task Looking for the measured pIC50 of Ac-CQTWQCYWRVFG[AEA][dK]-NH2 (disulfide 1-6 (inferred)) [Ac-CQTWQCYWRVFG-[AEA]-[(D)Lys]-NH2] , can you help?
## Result 7.21

## Task Looking for the measured pIC50 of Ac-CRTWQCYWREYGA[dK]-NH2 (cysteine pairing not given here) [Ac-CRTWQCYWREYGA-[(D)Lys]-NH2] , can you help?
## Result 7.10

## Task Looking for the measured pIC50 of Ac-CNTWQCYWRVFG[AEA][dK]-NH2 (disulfide 1-6 (inferred)) [Ac-CNTWQCYWRVFG-[AEA]-[(D)Lys]-NH2] , can you help?
## Result 7.10

## Task Looking for the measured pIC50 of Ac-CRTWQCYWRENGA[dK]-NH2 (cysteine pairing not given here) [Ac-CRTWQCYWRENGA-[(D)Lys]-NH2] , can you help?
## Result 7.07

## Task Looking for the measured pIC50 of Ac-C[NMeQ]TWQCYWRVFG[AEA][dK]-NH2 (disulfide 1-6 (inferred)) [Ac-C-[N-MeQln]-TWQCYWRVFG-[AEA]-[(D)Lys]-NH2] , can you help?
## Result 7.07
